# Test system: Aconitinarrhythmie der Ratte
# measurement description: Antiarrhythmic activity, aconitine-induced arrhythmia in the anaesthetised rat (oral dosing, aconitine i.v. infusion 60 min later)
# Assay type: in vivo, Ratten (Stamm: Sprague Dawley)
# measurement context: Rattus norvegicus, po, 1 h, read-out: Wirksame Dosis ED 50 %
measure name: ED50 (mg/kg)

COc1ccc(CCN(C)CCCC(CNC(C)C)(c2ccc(OC)c(OC)c2)C(C)C)cc1OC (centres unmarked); 26.1
CC(C)C(CN)(CCCN(C)CCc1ccccc1)c1ccccc1 (centres unmarked); 29.4
CCCCNCC(CCCN(C)CCc1ccc(OC)c(OC)c1)(c1ccc(Cl)cc1)C(C)C (centres unmarked); 21.5
CC(C)C(CN)(CCCNCCc1ccccc1)c1ccccc1.Cl.Cl (centres unmarked); 21.6
CCCNCC(CCCN(C)CCc1ccc(OC)c(OC)c1)(c1cc(OC)c(OC)c(OC)c1)C(C)C (centres unmarked); 23.4

----------
Overview of recorded ED50 for various compounds
# System: Aconitinarrhythmie der Ratte
# measurement description: Antiarrhythmic activity, aconitine-induced arrhythmia in the anaesthetised rat (oral dosing, aconitine i.v. infusion 60 min later)
# Type: in vivo, Ratten (Stamm: Sprague Dawley)
# measurement context: Rattus norvegicus, po, 1 h, read-out: Wirksame Dosis ED 50 %
measure name: ED50 (mg/kg)

COc1ccc(CCN(C)CCCC(CN(C)C)(c2ccc(OC)c(OC)c2)C(C)C)cc1OC (stereo not shown); 27.8
CCC(C)NCC(CCCN(C)CCc1ccccc1)(c1ccccc1)C(C)C (stereo not shown); 12.9
CCCCCCCCCCCCC(CCCN(C)CCc1ccccc1)(CN(C)C)c1ccccc1 (stereo not shown); 6.88
CCCCNCC(CCCN(C)CCc1ccc(OC)c(OC)c1)(c1cc(OC)c(OC)c(OC)c1)C(C)C (stereo not shown); 33.8

----------
# measurement description: Acute toxicity / tolerability in the rat after oral dosing (toxic symptoms: changes of baseline ECG, cyanosis, convulsions)
# Type: in vivo
# measurement context: in vivo, po, read-out: Q = Toxische Dosis / ED 50 %
TRUE means recorded selectivity ratio is 20 or above; FALSE means it is below 20.

CCC(C)NCC(CCCN(C)CCc1ccccc1)(c1ccccc1)C(C)C (stereo not drawn) [Beispiel 13]; FALSE
CC(C)C(CCCN(C)CCc1ccccc1)(CN(C)C)c1ccccc1 (stereo not drawn) [Beispiel 37]; FALSE
CCCNCC(CCCN(C)CCc1ccccc1)(c1ccccc1)C(C)C (stereo not drawn) [Beispiel 10]; FALSE
CCNCC(CCCN(C)CCc1ccc(OC)c(OC)c1)(c1cc(OC)c(OC)c(OC)c1)C(C)C (stereo not drawn) [Beispiel 20]; TRUE
CNCC(CCCN(C)CCc1ccccc1)(c1ccccc1)C(C)C (stereo not drawn) [Beispiel 30]; TRUE
CC(C)CNCC(CCCN(C)CCc1ccccc1)(c1ccccc1)C(C)C (stereo not drawn) [Beispiel 14]; FALSE

----------
# Test system: Aconitinarrhythmie der Ratte
# measurement description: Antiarrhythmic activity, aconitine-induced arrhythmia in the anaesthetised rat (oral dosing, aconitine i.v. infusion 60 min later)
# Format: in vivo, Ratten (Stamm: Sprague Dawley)
# measurement context: Rattus norvegicus, po, 1 h, read-out: Wirksame Dosis ED 50 %
# Experimental: Zur Bestimmung der antiarrhythmischen Wirksamkeit werden die Substanzen Ratten (Stamm: Sprague Dawley, Gewicht 200 bis 250 g) oral appliziert. 45 min später werden die Tiere mit Thiobutabarbital-Natrium (100,0 mg/kg i.p.) narkotisiert. Als arrhythmogene Substanz dient Aconitin, das 60 min nach Substanzapplikation i.v. infundiert wird (Dosierungsgeschwindigkeit: 0,005 mg/kg x min). […]
measure name: ED50

CCC(C)NCC(CCCN(C)CCc1ccc(OC)c(OC)c1)(c1cc(OC)c(OC)c(OC)c1)C(C)C (stereo not drawn); 17 mg/kg
CC(C)CNCC(CCCN(C)CCc1ccccc1)(c1ccccc1)C(C)C (stereo not drawn); 14.3 mg/kg
CCNCC(CCCN(C)CCc1ccccc1)(c1ccccc1)C(C)C (stereo not drawn); 11.8 mg/kg
COc1ccc(CCN(C)CCCC(CNC(C)C)(c2cc(OC)c(OC)c(OC)c2)C(C)C)cc1OC (stereo not drawn); 24.8 mg/kg
CCNCC(CCCN(C)CCc1ccc(OC)c(OC)c1)(c1ccc(OC)c(OC)c1)C(C)C (stereo not drawn); 17.1 mg/kg
CNCC(CCCN(C)CCc1ccccc1)c1ccccc1 (stereo not drawn); 11.6 mg/kg
CCCCNCC(CCCN(C)CCc1ccccc1)(c1ccccc1)C(C)C (stereo not drawn); 22.5 mg/kg
CC(C)C(CCCN(C)CCc1ccccc1)(CN(C)C)c1ccccc1 (stereo not drawn); 7.99 mg/kg
CCCNCC(CCCN(C)CCc1ccccc1)(c1ccccc1)C(C)C (stereo not drawn); 11.8 mg/kg
